The values you see were collected from ChEMBL document CHEMBL3045107.

system: Providencia rettgeri; assay: Antibacterial activity against Providencia rettgeri isolated from infected fish after 24 hr by broth microdilution method; format: functional
Property name: MIC (µg/mL)
Quick reminder: number only, in µg/mL, skip the unit.

Past entries and their recorded results:
molecule="CCOC(=O)C1=C(C)N=C2Sc3ccccc3N2C1c1ccc(O)cc1 (stereo not drawn)" property_name=MIC reported_value=12.5
molecule="CCOC(=O)C1=C(C)N=C2Sc3ccccc3N2C1c1ccc([N+](=O)[O-])cc1 (stereo not drawn)" property_name=MIC reported_value=25
molecule=O=C(O)c1cn(C2CC2)c2cc(N3CCNCC3)c(F)cc2c1=O property_name=MIC reported_value=1.62
molecule="CCOC(=O)C1=C(C)N=C2Sc3ccccc3N2C1c1ccc(OC)cc1 (stereo not drawn)" property_name=MIC reported_value=6.25
molecule="CCOC(=O)C1=C(C)N=C2Sc3ccccc3N2C1c1ccc(N(C)C)cc1 (stereo not drawn)" property_name=MIC reported_value=12.5

[in] // returns reported MIC for input CCOC(=O)C1=C(C)N=C2Sc3ccccc3N2C1c1c(Cl)cccc1Cl (stereo not drawn)
[out] 12.5

[in] Quick one: CCOC(=O)C1=C(C)N=C2Sc3ccccc3N2C1c1ccc(O)c(OC)c1 (stereo not drawn)
[out] 25

[in] Quick one: CCOC(=O)C1=C(C)N=C2Sc3ccccc3N2C1c1ccccc1O (stereo not drawn)
[out] 12.5

====

Property: IC50; scope: individual compounds
test: Cytotoxicity against Homo sapiens (human) L123 cells after 48 hr by MTT assay; format: cell-based; parameters: unit not given here

Past entries and their recorded results:
compound="CCOC(=O)C1=C(C)N=C2Sc3ccccc3N2C1c1ccc(N(C)C)cc1 (stereo not given)" reported_value="> 100"
compound="CCOC(=O)C1=C(C)N=C2Sc3ccccc3N2C1c1ccc(O)c(OC)c1 (stereo not given)" reported_value=50
compound="CCOC(=O)C1=C(C)N=C2Sc3ccccc3N2C1c1ccccc1O (stereo not given)" reported_value="> 100"
compound="CCOC(=O)C1=C(C)N=C2Sc3ccccc3N2C1c1ccccc1 (stereo not given)" reported_value="> 100"

The record that follows has no IC50 shown yet.
[in] // returns reported IC50 for input CCOC(=O)C1=C(C)N=C2Sc3ccccc3N2C1c1ccc([N+](=O)[O-])cc1 (stereo not given)
[out] > 100

====

test system: Bacillus cereus; test: Antibacterial activity against Bacillus cereus MTCC 7350 after 24 hr by broth microdilution method; type: functional; settings: MTCC 7350, 24 h
Property name: MIC (µg/mL)
Quick reminder: number only, in µg/mL, skip the unit.

Past entries and their recorded results:
compound="CCOC(=O)C1=C(C)N=C2Sc3ccccc3N2C1c1c(Cl)cccc1Cl (centres undefined)" measurement_target="Bacillus cereus" property_name=MIC unit_info=µg/mL reported_value=6.25
compound="CCOC(=O)C1=C(C)N=C2Sc3ccccc3N2C1c1ccc([N+](=O)[O-])cc1 (centres undefined)" measurement_target="Bacillus cereus" property_name=MIC unit_info=µg/mL reported_value=6.25
compound="CCOC(=O)C1=C(C)N=C2Sc3ccccc3N2C1c1ccc(OC)cc1 (centres undefined)" measurement_target="Bacillus cereus" property_name=MIC unit_info=µg/mL reported_value=6.25
compound="CCOC(=O)C1=C(C)N=C2Sc3ccccc3N2C1c1ccc(N(C)C)cc1 (centres undefined)" measurement_target="Bacillus cereus" property_name=MIC unit_info=µg/mL reported_value=6.25
compound="CCOC(=O)C1=C(C)N=C2Sc3ccccc3N2C1c1ccccc1O (centres undefined)" measurement_target="Bacillus cereus" property_name=MIC unit_info=µg/mL reported_value=6.25
compound="O=C(O)c1cn(C2CC2)c2cc(N3CCNCC3)c(F)cc2c1=O [CIPROFLOXACIN]" measurement_target="Bacillus cereus" property_name=MIC unit_info=µg/mL reported_value=1.62
compound="CCOC(=O)C1=C(C)N=C2Sc3ccccc3N2C1c1ccc(O)cc1 (centres undefined)" measurement_target="Bacillus cereus" property_name=MIC unit_info=µg/mL reported_value=6.25
compound="CCOC(=O)C1=C(C)N=C2Sc3ccccc3N2C1c1ccc(O)c(OC)c1 (centres undefined)" measurement_target="Bacillus cereus" property_name=MIC unit_info=µg/mL reported_value=12.5

The record that follows has no MIC shown yet.
[in] // returns reported MIC for input CCOC(=O)C1=C(C)N=C2Sc3ccccc3N2C1c1ccccc1 (centres undefined)
[out] 12.5

====

Property: inhibition zone (IZ); scope: individual compounds
system: Aspergillus fumigatus; experiment: Antifungal activity against Aspergillus fumigatus at 0.78 to 50 ug/ml after 72 hr by broth microdilution method; format: functional
Quick reminder: number only, in mm, skip the unit.

compound=OC(Cn1cncn1)(Cn1cncn1)c1ccc(F)cc1F reported_value=22

[in] For the record CCOC(=O)C1=C(C)N=C2Sc3ccccc3N2C1c1ccc(OC)cc1 (stereo not given) , what value of inhibition zone (IZ) is listed for Aspergillus fumigatus?
[out] 20

[in] Quick one: CCOC(=O)C1=C(C)N=C2Sc3ccccc3N2C1c1ccc([N+](=O)[O-])cc1 (stereo not given)
[out] 15

[in] Quick one: CCOC(=O)C1=C(C)N=C2Sc3ccccc3N2C1c1ccccc1 (stereo not given)
[out] 10

[in] Quick one: CCOC(=O)C1=C(C)N=C2Sc3ccccc3N2C1c1ccc(O)cc1 (stereo not given)
[out] 12

====

assay: Cytotoxicity against Homo sapiens (human) L123 cells after 48 hr by MTT assay; format: cell-based; set-up: unit not given here
Property name: IC50

compound="CCOC(=O)C1=C(C)N=C2Sc3ccccc3N2C1c1c(Cl)cccc1Cl (stereo not drawn)" reported_value="> 100"
compound="CCOC(=O)C1=C(C)N=C2Sc3ccccc3N2C1c1ccc(O)cc1 (stereo not drawn)" reported_value=50

[in] // returns reported IC50 for input CCOC(=O)C1=C(C)N=C2Sc3ccccc3N2C1c1ccc(OC)cc1 (stereo not drawn)
[out] > 100
